- assay_remarks: qHTS assay for small molecule disruptors of the mitochondrial membrane potential (AID 720635)
- protocol_conditions: HepG2 mitochondrial membrane potential, Mito-MPS dye ratio; series mostly up to 83.2 µM
Inconclusive results are not listed. The source made the active and inactive calls. The call rests on the fitted dose curve; in most records, active means well fitted inhibition curve with a large enough effect in the signal ratio in the repeat runs; inconclusive means weak or mixed curves, or effect the other way; inactive means flat fitted curve, though single readings scatter; the % refers to the signal ratio.
Result category, one only: class 1 (active), class 0 (inactive)

Here are 3 molecules together with their reported answers.
* CC(O)C(=O)[O][Hg][c]1ccccc1 (stereo not given) | class 1
* O=S(=O)(O)F | class 0
* CN(C)c1ccc(N)cc1 | class 1

Assay outcome for `O=[N+]([O-])c1cc(C(F)(F)F)c(Cl)c([N+](=O)[O-])c1Nc1ncc(C(F)(F)F)cc1Cl` : what was it?
class 1

What did the test return for `CC(C)N(C(=O)SC/C(Cl)=C/Cl)C(C)C` ?
class 1

----------
- assay_remarks: qHTS assay to identify small molecule agonists of the AP-1 signaling pathway - cell viability counter screen (AID 1159525); further: nearly all actives have a fitted effect of over 55% in size
- protocol_conditions: ME-180 (cervical carcinoma) AP-1-bla cells viability, ATP luminescence, 5 h; series mostly up to 76.8 µM
Records with an inconclusive call do not appear. Activity calls are given as the source filed them. Calls come from the whole dose curve.
Your reply should match one of these outcome classes. active, inactive

Worked examples, 8 compounds total:
• CO/N=C(\C(=O)OC)c1ccccc1CO/N=C(\C)c1cccc(C(F)(F)F)c1 = inactive
• Cc1c([N+](=O)[O-])cc2c(c1[N+](=O)[O-])C(C)(C)CC2(C)C = inactive
• Nc1ccc(N=Nc2ccccc2)cc1 = inactive
• CC(C)N(C(=O)SC/C(Cl)=C/Cl)C(C)C = inactive
• CN1C(=O)[C@@H](NC(=O)c2cc3ccccc3[nH]2)N=C(c2ccccc2)c2ccccc21 = inactive
• CC(Cc1ccc(O)cc1)NCC(O)c1cc(O)cc(O)c1 (stereo not drawn) = inactive
• CCN(CC)Cc1nccn1-c1ccc([N+](=O)[O-])cc1C(=O)c1ccccc1Cl = inactive
• Cc1ccc2cc3c(ccc4ccccc43)c3c2c1CC3 = inactive

Test call for this compound, please: `Fc1ccc(C(OCCN2CCN(CCCc3ccccc3)CC2)c2ccc(F)cc2)cc1`
active

What is the recorded call for this compound in the test? `CNC(=O)Oc1cc(C)cc(C(C)C)c1`
inactive

What is the recorded call for this compound in the test? `N#Cc1ccc(N(CC(N)=O)CC(F)(F)F)cc1C(F)(F)F`
inactive

# outcome recorded in this test, key = `CC#C[C@]1(O)CC[C@H]2[C@@H]3C[C@H](C)C4=CC(=O)CC[C@]4(C)[C@H]3CC[C@@]21C`
inactive

Give the logged outcome of this assay for the following compound: `O=[N+]([O-])c1ccc(CCl)cc1`
inactive

Assay result, entry CCCCC(CC)COC(=O)c1ccccc1C(=O)OCC(CC)CCCC (stereo not drawn) — outcome?
inactive

Record request — test call for `CN`
inactive

Hi, do you know how O=C1C2(Cl)C3(Cl)C4(Cl)C(Cl)(Cl)C5(Cl)C3(Cl)C1(Cl)C5(Cl)C24Cl (stereo not drawn) came out in this test?
active

State the result this test recorded for `CCN(CC)C(=S)S` .
active

Record lookup: outcome of this test for `CN/C(=N\[N+](=O)[O-])NCc1cnc(Cl)s1` ?
inactive

----------
- assay_remarks: qHTS RealTime-Glo MT Cell Viability Assay in HEK293 cells - 40 hour (AID 1224874); further: on the % scale 0 is the no-effect control and ±100 the full control effect; nearly all actives have a fitted effect of over 50% in size
- protocol_conditions: RealTime-Glo luminescence; active compounds read low
Records with an inconclusive call do not appear.
measured_metric: max response (%)
Give just the number in %; leave the unit off.

For orientation, consider the following solved cases.
* CC(C)N(C(=O)SC/C(Cl)=C/Cl)C(C)C | -22.2
* CC(C)NCC(O)c1ccccc1Cl (stereo not drawn) | 1.74
* CCOP(=S)(OCC)SC(CCl)N1C(=O)c2ccccc2C1=O (stereo not drawn) | 6.49
* C#CC1(O)CCCCC1 | 19.4
* Brc1cccc(-c2ccccc2)c1 | -11.2

Let's switch to this compound now.
Answer with the recorded max response for the compound listed here: CCC(C)Nc1c([N+](=O)[O-])cc(C(C)(C)C)cc1[N+](=O)[O-] (stereo not drawn)
-8.53

----------
- assay_remarks: qHTS assay to identify small molecule agonists of the androgen receptor (AR) signaling pathway in the presence of an antagonist - cell viability counter screen (AID 1259379); further: nearly all actives have a fitted effect of over 25% in size; further: potency means the concentration at half of the fitted maximal effect
- protocol_conditions: MDA-kb2 viability, CellTiter-Fluor, 16 h; series mostly up to 92.4 µM
Results filed as inconclusive are left out. Activity calls are given as the source filed them. Calls come from the whole dose curve; as a rule, active = well fitted cell-killing curve with a large enough effect in the repeat runs; inconclusive = weak or mixed curves, or effect the other way; inactive = flat fitted curve, though single readings scatter.
measured_metric: Potency

Here is how some compounds turned out for Potency.
- C=CC(=C)C: inactive
- CCC[CH2][Sn]([CH2]CCC)([O]C(C)=O)[O]C(C)=O: 0.978 µM (active)
- CC[C@H](C)[C@H]1O[C@]2(C=C[C@@H]1C)C[C@@H]1C[C@@H](C/C=C(\C)[C@@H](O[C@H]3C[C@H](OC)[C@@H](O[C@H]4C[C@H](OC)[C@@H](NC)[C@H](C)O4)[C@H](C)O3)[C@@H](C)/C=C/C=C3\CO[C@@H]4[C@H](O)C(C)=C[C@@H](C(=O)O1)[C@]34O)O2: 19.3 µM (active)
- CCc1cccc(C)c1N(C(=O)CCl)[C@@H](C)COC: inactive
- CCOP(=S)(OCC)SC(CCl)N1C(=O)c2ccccc2C1=O (configuration not stated): inactive

Complete the entry with Potency for `CC(C)N(C(=O)SC/C(Cl)=C/Cl)C(C)C`
inactive

Fill in reported Potency for this entry: `c1ccc(Nc2ccc(Nc3ccccc3)cc2)cc1`
inactive

----------
- assay_remarks: Caspase-3/7 induction in CHO-K1 cells by small molecules, qHTS cell viability counter screen (AID 1346979); further: nearly all actives have a fitted effect of over 35% in size
- protocol_conditions: CellTiter-Fluor fluorescence, 17 h; series mostly up to 92.4 µM
Inconclusive results are not listed. Activity calls are given as the source filed them. The call rests on the fitted dose curve; in most records, active means well fitted cell-killing curve with a large enough effect in the repeat runs; inconclusive means weak or mixed curves, or effect the other way; inactive means no such curve, though single readings can be large or run the other way.
The reply should name one outcome from True = active, False = inactive

Some solved cases for reference:
• CC(C)=CCN1CC[C@@]2(C)c3cc(O)ccc3C[C@@H]1[C@@H]2C = False
• CC(=O)O.CC(=O)O.CC(=O)O.CC(=O)O.CC(=O)O.CC(=O)O.CC(=O)O.O.O.[Cr].[Cr].[Cr] = False
• Cc1cnc2c(C(=O)O)c(Cl)ccc2c1 = False
• CCC1(CC)C(=O)N=C(O)NC1=O = False
• O=C(CCCCl)c1ccc(F)cc1 = False
• CCCCC(CC)COC(=O)c1ccccc1C(=O)OCC(CC)CCCC (stereo not given) = False
• CC[C@H](C)[C@H]1O[C@]2(C=C[C@@H]1C)C[C@@H]1C[C@@H](C/C=C(\C)[C@@H](O[C@H]3C[C@H](OC)[C@@H](O[C@H]4C[C@H](OC)[C@@H](NC)[C@H](C)O4)[C@H](C)O3)[C@@H](C)/C=C/C=C3\CO[C@@H]4[C@H](O)C(C)=C[C@@H](C(=O)O1)[C@]34O)O2 = True
• C=CC(=O)[O][Sn]([CH2]CCC)([CH2]CCC)[CH2]CCC = True

Please share the test call associated with `Oc1cccc(Cl)c1Cl` .
False

Field: outcome | Entry: `Cc1cc2c3c(c1)C(c1ccccc1)=N[C@@H](NC(=O)c1ccncc1)C(=O)N3CC2`
False

What classification did `ClCBr` end up with in this test?
False

Please share the test call associated with `CC(C)N(C(=O)SC/C(Cl)=C/Cl)C(C)C` .
False

----------
- assay_remarks: qHTS assay to identify aromatase inhibitors - cell viability counter screen (AID 743084);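 further: cells stimulated with testosterone during compound exposure; on the % scale 0 is the no-effect control and ±100 the full control effect; nearly all actives have a fitted effect of over 55% in size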
- protocol_conditions: MCF-7 aro ERE viability, CellTiter-Fluor, 24 h; series mostly up to 70.3 µM
Records with an inconclusive call do not appear. The source made the active and inactive calls. The call rests on the fitted dose curve; in most records, active means well fitted cell-killing curve with a large enough effect in the repeat runs; inconclusive means weak or mixed curves, or effect the other way; inactive means no such curve, though single readings can be large or run the other way.
Hi there, use one of these labels in your reply, thanks! true for active, false for inactive

Reference set (4 entries):
• C#CCO = false
• BrCCCBr = false
• Nc1nc(N)nc(Cl)n1 = false
• COc1nc(C)nc(NC(=O)NS(=O)(=O)c2ccccc2Cl)n1 = false

Lab log entry: `Brc1ccc(Oc2ccc(Br)cc2Br)c(Br)c1` — outcome as called in the assay?
false

----------
- assay_remarks: qHTS RealTime-Glo MT Cell Viability Assay in HepG2 cells - 24 hour (AID 1224867); further: nearly all actives have a fitted effect of over 50% in size
- protocol_conditions: RealTime-Glo luminescence; series mostly up to 76.8 µM
Inconclusive results are not listed. Activity calls are given as the source filed them. Calls come from the whole dose curve; as a rule, active = well fitted cell-killing curve with a large enough effect in the repeat runs; inconclusive = weak or mixed curves; inactive = flat fitted curve, though single readings scatter.
Choose the fitting class; nothing outside 1 (active), 0 (inactive) is accepted.

Worked examples, 4 compounds total:
- COc1cnc(OC)n2nc(NS(=O)(=O)c3c(OCC(F)F)cccc3C(F)(F)F)nc12: 0
- CCCCc1ccccc1: 0
- CCC(OC(C)=O)C(CC(C)NC)(c1ccccc1)c1ccccc1 (stereo not given): 1
- O=[N+]([O-])c1ccc(Cl)c(Cl)c1Cl: 0

Hi team, can someone confirm the assay call for `CNC(=O)CSP(=O)(OC)OC` ?
0

What call does the record list for `Cc1nn(-c2cc(NS(C)(=O)=O)c(Cl)cc2Cl)c(=O)n1C(F)F` ?
0

Query: recorded result category for `N#CSCc1ccccc1` in this test
0

// param item: `CCCN` ; yields the recorded call
0

Give the logged outcome of this assay for the following compound: `c1ccc(N=NNc2ccccc2)cc1`
0

Write down the call the test reported for this compound. Item: `CCCCCCC[CH2][Sn]([Cl])([Cl])[CH2]CCCCCCC`
0

Recorded call for `O=[N+]([O-])c1cccc2cccc([N+](=O)[O-])c12` ?
0

What was the test verdict on `CC(C)(C)c1ccc(OP(=O)(Oc2ccccc2)Oc2ccccc2)cc1` ?
0

Tell me the assay call for `O=C(N[C@H]1N=C(c2ccccc2F)c2cccc3c2N(CC3)C1=O)c1cc2ccccc2[nH]1` please.
0

Identify the outcome logged in this assay for the compound shown: `CCCCON=O`
0

Write down the call the test reported for this compound. Item: `CSC(=O)c1c(C(F)F)nc(C(F)(F)F)c(C(=O)SC)c1CC(C)C`
0

I would be grateful if you could indicate the recorded call for `COc1nc(C)nc(NC(=O)NS(=O)(=O)c2ccccc2Cl)n1` .
0

What did this assay record as the result for `C=C(C)C(=O)[O][Sn]([CH2]CCC)([CH2]CCC)[CH2]CCC` ?
1
